Target: sodium-proton exchanger of subtype 3 (NHE3) (Homo sapiens, UniProt P48764)
Construct: expressed in transfected cells
Sequence (P48764 26-834, species assumed): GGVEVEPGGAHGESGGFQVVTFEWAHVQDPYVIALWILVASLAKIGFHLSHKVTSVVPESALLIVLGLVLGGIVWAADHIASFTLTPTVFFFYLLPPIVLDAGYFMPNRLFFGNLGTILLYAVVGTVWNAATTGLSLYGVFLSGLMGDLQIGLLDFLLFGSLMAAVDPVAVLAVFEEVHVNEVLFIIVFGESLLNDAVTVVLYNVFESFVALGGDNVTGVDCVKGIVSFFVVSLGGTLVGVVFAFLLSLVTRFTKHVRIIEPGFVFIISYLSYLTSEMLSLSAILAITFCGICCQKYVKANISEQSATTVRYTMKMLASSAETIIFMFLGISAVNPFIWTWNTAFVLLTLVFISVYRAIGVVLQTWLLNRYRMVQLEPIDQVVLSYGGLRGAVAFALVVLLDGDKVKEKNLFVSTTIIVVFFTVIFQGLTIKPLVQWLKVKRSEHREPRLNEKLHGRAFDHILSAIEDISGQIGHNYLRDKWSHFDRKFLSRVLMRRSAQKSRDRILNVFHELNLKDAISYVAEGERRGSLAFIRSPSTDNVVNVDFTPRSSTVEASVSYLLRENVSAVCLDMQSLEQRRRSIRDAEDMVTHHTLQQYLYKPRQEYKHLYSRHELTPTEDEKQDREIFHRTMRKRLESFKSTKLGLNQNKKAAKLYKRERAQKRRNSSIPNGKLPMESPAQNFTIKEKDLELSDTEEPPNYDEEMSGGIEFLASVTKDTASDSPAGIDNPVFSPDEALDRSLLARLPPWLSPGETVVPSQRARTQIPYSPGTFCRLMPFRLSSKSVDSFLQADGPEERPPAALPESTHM
Test: Recovery of intracellular pH (pHi) after acidification in LAP1 cells stably expressing NHE3 (BCECF fluorescence, FLIPR)
Assay type: cell-based
Conditions: LAP1 cells stably expressing NHE3; pH recovery after acidification; range 1 is % inhibition at 10 μM; read-out: Activity range (inhibitory effect on NHE3)
IC50 values, listed per item

Below, each entry is followed by its recorded IC50 result.
>>> df
                                   compound                                       tgt  recorded_value
0  CC(=O)Nc1cccc(O[C@H]2c3cccc(C)c3C[C@@H]2N2CCCC2)c1 (racemic) [Example 653]  sodium-proton exchanger of subtype 3 (NHE3) (Homo sapiens, UniProt P48764)      1 to 10 µM
1  NC1CCN([C@@H]2Cc3ccccc3[C@H]2Oc2ccc(NC(=O)OCc3ccccc3)cc2)C1 (mixture of isomers) [Example 241]  sodium-proton exchanger of subtype 3 (NHE3) (Homo sapiens, UniProt P48764)      1 to 10 µM
2  Cc1nnc(C)n1-c1ccc(F)c(O[C@H]2c3cc(Cl)cc(Cl)c3C[C@@H]2N2CC[C@@H](O)C2)c1 [Example 114]  sodium-proton exchanger of subtype 3 (NHE3) (Homo sapiens, UniProt P48764)      1 to 10 µM

May I ask what IC50 has been recorded for NCC1CCN([C@@H]2Cc3ccccc3[C@H]2Oc2cccc(C(N)=O)c2)C1 (mixture of isomers) [Example 414] ? 1 to 10 µM

Next entry: CS(=O)(=O)c1ccc(O[C@H]2c3cc(Cl)cc(Cl)c3C[C@@H]2N2CCC[C@@H](NCCF)C2)cc1 [Example 222] < 1 µM

====

Molecular target: sodium-proton exchanger of subtype 3 (NHE3) (Homo sapiens, UniProt P48764)
Construct: expressed in transfected cells
Assay: Recovery of intracellular pH (pHi) after acidification in LAP1 cells stably expressing NHE3 (BCECF fluorescence, FLIPR)
Type: cell-based
Details: LAP1 cells stably expressing NHE3; pH recovery after acidification; range 1 is % inhibition at 10 μM; read-out: Activity range (inhibitory effect on NHE3)
quantity.measured: IC50

Solved cases (2 shown):
In [3]: df
Out[3]:
                                   compound    recorded_value
0  NS(=O)(=O)c1ccc(O[C@H]2c3ccccc3C[C@@H]2N2CCCCCC2)cc1 (racemic) [Example 464]         < 1000 nM
1  CC(=O)Nc1ccc(S[C@H]2c3cc(Cl)cc(Cl)c3C[C@@H]2N2CC[C@@H](O)C2)cc1 [Example 699]  1000 to 10000 nM

What value of IC50 on sodium-proton exchanger of subtype 3 (NHE3) (Homo sapiens, UniProt P48764) does NS(=O)(=O)c1ccc(O[C@H]2c3cc(Cl)cc(Cl)c3C[C@@H]2N2CC[C@@H](O)C2)c(F)c1 [Example 741] have? < 1000 nM

Moving on to Cc1cc(-n2c(C)nnc2C)ccc1O[C@H]1c2cc(Cl)cc(Cl)c2C[C@@H]1N1CC[C@@H](O)C1 [Example 131] < 1000 nM

Cool, now CC(=O)Nc1cccc(OC2c3ccccc3CC2N2CC[C@@H](O)C2)c1 (mixture of isomers) [Example 681] 1000 to 10000 nM

Next up: N[C@@H]1CCCN([C@@H]2Cc3ccccc3[C@H]2Oc2ccc(F)cc2F)C1 (racemic) [Example 33] 1000 to 10000 nM

Also COC(=O)c1ccc(O[C@H]2c3cc(Cl)cc(Cl)c3C[C@@H]2N2CC[C@@H](O)C2)c(F)c1 [Example 553] , if possible. 1000 to 10000 nM

====

Biological target: sodium-proton exchanger of subtype 3 (NHE3) (Homo sapiens, UniProt P48764)
Construct: expressed in transfected cells
Assay: Recovery of intracellular pH (pHi) after acidification in LAP1 cells stably expressing NHE3 (BCECF fluorescence, FLIPR)
Format: cell-based
Conditions: LAP1 cells stably expressing NHE3; pH recovery after acidification; range 1 is % inhibition at 10 μM; read-out: Activity range (inhibitory effect on NHE3)
Consider the following compounds and their measured IC50 readings.

Can you share its IC50? I mean this compound: CN(C)C1Cc2ccccc2C1Oc1ccc(S(N)(=O)=O)c(Cl)c1Cl (racemic) [Example 356] < 1 µM

====

Target: sodium-proton exchanger of subtype 3 (NHE3) (Homo sapiens, UniProt P48764)
Construct: expressed in transfected cells
Assay: Recovery of intracellular pH (pHi) after acidification in LAP1 cells stably expressing NHE3 (BCECF fluorescence, FLIPR)
Type: cell-based
Settings: LAP1 cells stably expressing NHE3; pH recovery after acidification; range 1 is % inhibition at 10 μM; read-out: Activity range (inhibitory effect on NHE3)
pIC50: −log10 of the molar value.
quantity.measured: pIC50

Worked examples, 5 compounds total:
>>> print(df.to_string())
                                   compound  quantity_measured  recorded_value
0  C[C@@H]1CN([C@H]2Cc3c(Cl)cc(Cl)cc3[C@@H]2Oc2ccc(S(C)(=O)=O)cc2)C[C@H](C)N1 [Example 21]              pIC50          > 6.00
1  O=C1CNC(=O)N1c1ccc(Cl)c(O[C@H]2c3cc(Cl)cc(F)c3C[C@@H]2N2CC[C@@H](O)C2)c1 [Example 438]              pIC50    5.00 to 6.00
2  COc1cccc(F)c1O[C@@H]1c2ccccc2C[C@H]1N1CCC(CN)C1 (mixture of isomers) [Example 605]              pIC50    5.00 to 6.00
3  N[C@@H]1CCCN([C@H]2CCc3ccccc3[C@@H]2Oc2cccc3[nH]nnc23)C1 (racemic) [Example 29]              pIC50    5.00 to 6.00
4  Cc1c(Cl)cccc1O[C@@H]1c2ccccc2C[C@H]1N1C[C@H]2CNC[C@H]2C1 (racemic) [Example 6]              pIC50    5.00 to 6.00

Quick one: pIC50 for O=c1[nH]ccn1-c1ccc(O[C@H]2c3cc(Cl)cc(Cl)c3C[C@@H]2N2CC[C@@H](O)C2)cc1 [Example 325] ? > 6.00

How about O=S1(=O)CCCN1c1cccc(O[C@H]2c3ccccc3C[C@@H]2N2CCCC2)c1 (racemic) [Example 363] ? 5.00 to 6.00

Then what about the compound Cc1nnc(C)n1-c1ccc(O[C@H]2c3cc(Cl)cc(Cl)c3C[C@@H]2N2CC[C@H](N)C2)cc1 [Example 207] ? > 6.00

And then NS(=O)(=O)c1ccc(O[C@H]2c3ccccc3C[C@@H]2CN2CCCC2)c(Cl)c1 (racemic) [Example 442] , what is it? 5.00 to 6.00

What do we get for CC(=O)Nc1cccc(O[C@H]2c3cc(Cl)cc(Cl)c3C[C@@H]2N2CCCNCC2)c1 (racemic) [Example 644] ? > 6.00

Continue with N[C@@H]1CCCN([C@@H]2Cc3ccccc3[C@H]2Oc2cccc(N3CCCCC3)c2)C1 (racemic) [Example 59] 5.00 to 6.00

====

Target: sodium-proton exchanger of subtype 3 (NHE3) (Homo sapiens)
Construct: expressed in transfected cells
Assay: Recovery of intracellular pH (pHi) after acidification in LAP1 cells stably expressing NHE3 (BCECF fluorescence, FLIPR)
Type: cell-based
Settings: LAP1 cells stably expressing NHE3; pH recovery after acidification; range 1 is % inhibition at 10 μM; read-out: Activity range (inhibitory effect on NHE3)
pIC50: −log10 of the molar value.
quantity.measured: pIC50

In [3]: df
Out[3]:
                                   compound  quantity_measured  recorded_value
0  CC1(C)NC(=O)N(c2ccc(O[C@H]3c4cc(Cl)cc(Cl)c4C[C@@H]3N3CC[C@@H](O)C3)c(Cl)c2)C1=O              pIC50    5.00 to 6.00

Please examine the following record next.
Which measured pIC50 value corresponds to `CS(=O)(=O)c1ccc(O[C@H]2c3cc(Cl)ccc3C[C@@H]2N2CC[C@@H](O)C2)c(Cl)c1` ? 5.00 to 6.00

====

Target: sodium-proton exchanger of subtype 3 (NHE3) (Homo sapiens)
Construct: expressed in transfected cells
Test: Recovery of intracellular pH (pHi) after acidification in LAP1 cells stably expressing NHE3 (BCECF fluorescence, FLIPR)
Type: cell-based
Details: LAP1 cells stably expressing NHE3; pH recovery after acidification; range 1 is % inhibition at 10 μM; read-out: Activity range (inhibitory effect on NHE3)
quantity.measured: IC50

Worked examples follow.
                                   molecule  recorded_value
0  N#Cc1ccc(O[C@H]2c3ccccc3CC[C@@H]2N2CCC[C@H](N)C2)c(Cl)c1 (racemic)      1 to 10 µM
1  Cc1nnc(C)n1-c1ccc(O[C@H]2c3cc(Cl)ccc3C[C@@H]2N2CCCC2)c(F)c1          < 1 µM
2  NCC1CCN([C@@H]2Cc3ccccc3[C@H]2Oc2ccc3[nH]cc(CC(N)=O)c3c2)CC1 (racemic)      1 to 10 µM
3  CS(=O)(=O)c1ccc(O[C@H]2c3cc(Cl)cc(Cl)c3C[C@@H]2N2CCC[C@@H](NCC#N)C2)cc1          < 1 µM
4  N#Cc1ccc(O[C@@H]2c3ccccc3C[C@H]2N2CCC(N)C2)c(Cl)c1 (mixture of isomers)      1 to 10 µM
5  CN1CCN(c2ccc(O[C@H]3c4cc(Cl)cc(Cl)c4C[C@@H]3N3CC[C@@H](O)C3)cc2)C1=O      1 to 10 µM

Continue with the next molecule.
Can you look up the measured IC50 of COc1ccc(C)cc1O[C@@H]1c2ccccc2C[C@H]1N1CCC(CN)C1 (mixture of isomers) for me? 1 to 10 µM
